Reported pIC50 values follow for various compounds
Target: HIV integrase (Human immunodeficiency virus type 1 group M subtype B, UniProt P12497, F1332H)
Construct: HIV integrase full length gene; made in house; host or cells: Escherichia coli BL21(DE3), plasmid pET21a-INH
Experiment: Determination of enzyme (HIV integrase) inhibitory activity
Format: biochemical
Settings: recombinant HIV integrase (F185H), strand transfer ELISA, absorbance at 450 nm
pIC50: −log10 of the molar value. Counter-ions that a name gives are not always drawn.

Here's what some known entries look like.
INSERT INTO measurements (compound, reported_metric, observed_result) VALUES
  ('O=c1ccn2ccn(Cc3cccc(Cl)c3)c(=O)c2c1O [Example 88, hydrochloride]', 'pIC50', '7.00 to 8.00'),
  ('O=C1c2c(O)c(=O)c(-c3cnccn3)cn2CCN1Cc1ccc(Cl)c(Cl)c1 [Example 383, hydrochloride]', 'pIC50', '7.00 to 8.00'),
  ('O=C1c2c(O)c(=O)c(-c3nccs3)cn2CCN1CCCc1ccccc1Cl [Example 298, hydrochloride]', 'pIC50', '> 8.00'),
  ('O=C1c2c(O)c(=O)ccn2CCN1Cc1cc(Cl)cc(Cl)c1 [Example 66]', 'pIC50', '7.00 to 8.00');

Query block: Using the record for CCC(=O)c1cc(=O)c(O)c2n1CCN(Cc1ccc(Cl)c(Cl)c1)C2=O [Example 59] , report its pIC50.
Result block: > 8.00

Query block: Same read-out for N#CCc1cc(=O)c(O)c2n1CCN(Cc1ccc(Cl)c(Cl)c1)C2=O [Example 75] ?
Result block: 7.00 to 8.00

Query block: Same read-out for CNC(=O)c1cn2ccn(Cc3ccc(F)c(Cl)c3)c(=O)c2c(O)c1=O [Example 207] ?
Result block: > 8.00

Query block: Same read-out for O=c1c(-c2nnn[nH]2)cn2ccn(Cc3cccc(Cl)c3)c(=O)c2c1O [Example 188, hydrochloride] ?
Result block: 7.00 to 8.00

Query block: Same read-out for CC(C)C(=O)Nc1cn2ccn(Cc3cccc(Cl)c3)c(=O)c2c(O)c1=O [Example 239] ?
Result block: > 8.00

Query block: Same read-out for O=C1c2c(O)c(=O)c(-c3ccncc3)cn2CCN1Cc1cccc(Cl)c1F [Example 340, hydrochloride] ?
Result block: > 8.00

Query block: Same read-out for O=c1c(Br)cn2ccn(Cc3cccc(Cl)c3)c(=O)c2c1O [Example 94, hydrochloride] ?
Result block: 7.00 to 8.00

Query block: Same read-out for O=C1c2c(O)c(=O)c(-c3ccccn3)cn2CCN1CCCc1c(F)cccc1Cl [Example 329, hydrochloride] ?
Result block: 7.00 to 8.00

Query block: Same read-out for O=c1c(-c2ccc(O)cc2)cn2ccn(Cc3cccc(Cl)c3)c(=O)c2c1O [Example 142] ?
Result block: 7.00 to 8.00

Query block: Same read-out for CC(=O)C(=O)Nc1cn2ccn(Cc3cccc(Cl)c3)c(=O)c2c(O)c1=O [Example 265] ?
Result block: > 8.00

Query block: Same read-out for O=C1c2c(O)c(=O)c(Br)cn2CC(O)N1Cc1cccc(Cl)c1 (stereo not drawn) [Example 110, hydrochloride] ?
Result block: 6.00 to 7.00

Query block: Same read-out for O=c1ccn2ccn(CCCc3ccc(Cl)cc3)c(=O)c2c1O [Example 70] ?
Result block: 7.00 to 8.00

Query block: Same read-out for O=C1c2c(O)c(=O)ccn2CCN1CCCc1ccccc1 [Example 50] ?
Result block: 7.00 to 8.00

Query block: Same read-out for O=C1c2c(O)c(=O)cc(COc3ccccc3)n2CCN1Cc1ccc(Cl)c(Cl)c1 [Example 41] ?
Result block: 7.00 to 8.00
